test.system: HLA-B*51:01
protocol.notes: IEDB peptide-MHC binding, purified MHC/direct/fluorescence; filed as Kd, often an IC50 or EC50 that approximates it; bounds were set here for any values at or beyond the usual limits of such assays
condition.set: source organism: Listeria monocytogenes serotype 4b str. H7858
property.name: Kd

For `AALEGLSGF` , what is its reported Kd?
≥ 20 µM

----------
Catalogue of sequences with associated pKd
test.system: HLA-A*02:01
protocol.notes: IEDB peptide-MHC binding, purified MHC/direct/fluorescence; filed as Kd, often an IC50 or EC50 that approximates it; bounds were set here for any values at or beyond the usual limits of such assays
condition.set: source organism: Giardia lamblia ATCC 50803
pKd: −log10 of the molar value.

Example entries begin here.
1) FMYEDALKS    7.36
2) ETKKRMDYF    ≤ 4.70
3) MTFPLHFRS    ≤ 4.70

Next:
Return reported pKd; argument: `SYPPPPASF`
≤ 4.70

----------
# maps each entry to its pKd
test.system: HLA-A*33:01
protocol.notes: IEDB peptide-MHC binding, purified MHC/competitive/radioactivity; filed as Kd, often an IC50 or EC50 that approximates it; bounds were set here for any values at or beyond the usual limits of such assays
condition.set: source organism: Vaccinia virus Copenhagen
Note on units: pKd is unitless, being -log10 of a concentration expressed in mol/L.

1. PVYISQFSYK    7.27

Now for the sequence whose pKd we want.
Look up pKd for this sequence: `SVLDIISSK`
5.36

----------
test.system: HLA-A*23:01
protocol.notes: IEDB peptide-MHC binding, purified MHC/direct/fluorescence; filed as Kd, often an IC50 or EC50 that approximates it; bounds were set here for any values at or beyond the usual limits of such assays
condition.set: source organism: Reston ebolavirus
property.name: Kd

Form: Entry = `KHDFIDNPL` | System = HLA-A*23:01 | Kd = ____
≥ 20 µM

----------
test.system: HLA-A*02:03
protocol.notes: IEDB peptide-MHC binding, purified MHC/competitive/radioactivity; filed as Kd, often an IC50 or EC50 that approximates it; bounds were set here for any values at or beyond the usual limits of such assays
condition.set: source organism: Vaccinia virus WR
property.name: pKd
Expect pKd as a plain number equal to -log10 of the molar concentration.

1) YLLMHLVSL    8.85
2) DIPTFNSLNT    4.78
3) IITILQDIV    6.18

Suppose we examine the sequence `VQEFIFSAL` ; what pKd value has been reported?
6.33

What would you report for `MMNERDVSV` ?
9.57

// repeat for `KTSTLIFFV` and report
6.81

Repeat with `LVSDCASTI`
7.76

What about this sequence? `LALKNSQAEL`
6.48

Entry `EIMDKEQLL` please
6.37

Same thing, different sequence: `IQKDINITHT`
6.47

Now the sequence `LISFFGLFDI`
6.97

Now give it for `SLTQVKELGI` too.
7.12

Same lookup for `IASILSLET` , please.
5.13

Same for `KIMEIVSHL`
7.99

Queued: `CTINVNSLAL`
5.98

Now the sequence `ITLVVISVI`
5.74

Now try `TLNTLITLI` .
9.22

Next record, please: `HTYHLENDKI`
4.86

----------
test.system: HLA-B*58:01
protocol.notes: IEDB peptide-MHC binding, purified MHC/direct/fluorescence; filed as Kd, often an IC50 or EC50 that approximates it; bounds were set here for any values at or beyond the usual limits of such assays
condition.set: source organism: Cryptosporidium hominis
property.name: Kd

// returns reported Kd for input `FMKSRVYSI`
≥ 20 µM

----------
test.system: HLA-B*07:02
protocol.notes: IEDB peptide-MHC binding, purified MHC/competitive/fluorescence; filed as Kd, often an IC50 or EC50 that approximates it; bounds were set here for any values at or beyond the usual limits of such assays
condition.set: source organism: Orthomarburgvirus marburgense
property.name: Kd

Entry `QGKQHLHSL` has what Kd?
≥ 20 µM

----------
test.system: HLA-A*02:17
protocol.notes: IEDB peptide-MHC binding, purified MHC/competitive/radioactivity; filed as Kd, often an IC50 or EC50 that approximates it; bounds were set here for any values at or beyond the usual limits of such assays
condition.set: source organism: Dengue virus 4 Dominica/814669/1981
property.name: Kd (nM)
A number alone suffices; assume nM.

If you can, please state the reported Kd value of `SMGLITIAV` .
776

----------
test.system: HLA-B*57:01
protocol.notes: IEDB peptide-MHC binding, purified MHC/competitive/fluorescence; filed as Kd, often an IC50 or EC50 that approximates it; bounds were set here for any values at or beyond the usual limits of such assays
condition.set: source organism: Cryptococcus neoformans var. neoformans B-3501A
property.name: Kd

So what does the record say about Kd for `AIDDFCLFA` ?
≥ 20 µM

----------
test.system: HLA-B*51:01
protocol.notes: IEDB peptide-MHC binding, purified MHC/direct/fluorescence; filed as Kd, often an IC50 or EC50 that approximates it; bounds were set here for any values at or beyond the usual limits of such assays
condition.set: source organism: Vibrio cholerae V52
property.name: Kd (µM)
Answer format: numeric, µM implied, no suffix.

Which Kd is reported with HLA-B*51:01 for this entry: `LPYPVLLKI` ?
0.054

----------
# Kd annotations
test.system: HLA-A*31:01
protocol.notes: IEDB peptide-MHC binding, purified MHC/competitive/radioactivity; filed as Kd, often an IC50 or EC50 that approximates it; bounds were set here for any values at or beyond the usual limits of such assays
condition.set: source organism: SARS coronavirus Tor2
Write it as a number; the unit nM goes unstated.

1. ASANLAATK    1030
2. TVVIGTSKFY    1860
3. WFFNNYLRK    3880
4. YIFFASFYY    784
5. SVKGLTPSK    171
6. RQVVNVITTK    2670
7. AAYYFMKFRR    41
8. SQNPLAELK    3700
9. MQKESDDYIK    5790
10. SLIDLQELGK    75.9

Kindly state the measured Kd obtained for `NQATTKTTFK` with HLA-A*31:01.
4270

Also check `GLFCLLNRY`
7160

----------
test.system: HLA-B*15:17
protocol.notes: IEDB peptide-MHC binding, purified MHC/competitive/fluorescence; filed as Kd, often an IC50 or EC50 that approximates it; bounds were set here for any values at or beyond the usual limits of such assays
condition.set: source organism: Vaccinia virus Copenhagen
property.name: Kd

What value of Kd has been reported for the following sequence? `MTRVTNNVY`
≤ 1 nM

----------
test.system: HLA-A*32:01
protocol.notes: IEDB peptide-MHC binding, purified MHC/competitive/radioactivity; filed as Kd, often an IC50 or EC50 that approximates it; bounds were set here for any values at or beyond the usual limits of such assays
condition.set: source organism: Dengue virus 1 Singapore/S275/1990
property.name: Kd (nM)
Record the value in nM, omitting the unit from your answer.

Requested read-out Kd, target or system HLA-A*32:01, entry `FQSHQLWATL`
1960

----------
test.system: HLA-B*57:01
protocol.notes: IEDB peptide-MHC binding, purified MHC/direct/fluorescence; filed as Kd, often an IC50 or EC50 that approximates it; bounds were set here for any values at or beyond the usual limits of such assays
condition.set: source organism: Yellow fever virus 17D
property.name: Kd

So what's the measured Kd for this one? `CRTAFKPVL`
≥ 20 µM

----------
test.system: HLA-A*02:01
protocol.notes: IEDB peptide-MHC binding, purified MHC/competitive/radioactivity; filed as Kd, often an IC50 or EC50 that approximates it; bounds were set here for any values at or beyond the usual limits of such assays
condition.set: source organism: Lassa virus GA391
pKd: −log10 of the molar value.
property.name: pKd

Reported pKd for HLA-A*02:01, given `TMDGILKSI` ?
≤ 4.60

----------
test.system: HLA-A*68:02
protocol.notes: IEDB peptide-MHC binding, purified MHC/competitive/fluorescence; filed as Kd, often an IC50 or EC50 that approximates it; bounds were set here for any values at or beyond the usual limits of such assays
condition.set: source organism: Rickettsia sibirica 246
property.name: Kd (nM)
The response must be a number in nM with no trailing unit.

Field request: Kd | item: `FIHFDHVPI`
24.7

----------
test.system: HLA-C*14:02
protocol.notes: IEDB peptide-MHC binding, purified MHC/direct/fluorescence; filed as Kd, often an IC50 or EC50 that approximates it; bounds were set here for any values at or beyond the usual limits of such assays
condition.set: source organism: Taterapox virus
property.name: Kd

Consider the sequence shown here: `KINIFMAFL` What is its recorded Kd?
≥ 20 µM

----------
test.system: HLA-A*26:01
protocol.notes: IEDB peptide-MHC binding, purified MHC/direct/fluorescence; filed as Kd, often an IC50 or EC50 that approximates it; bounds were set here for any values at or beyond the usual limits of such assays
condition.set: source organism: Brucella suis 1330
property.name: Kd

Which Kd value belongs to `MHCDFAFWV` ?
≥ 20 µM
